Provenance of the data: patent US6333176A

# target or system: peptide amidase from Xanthomonas maltophilia (Stenotrophomonas maltophilia)
# Construct: wild type, not recombinant
# Sequence (Q8RJN5 34-540): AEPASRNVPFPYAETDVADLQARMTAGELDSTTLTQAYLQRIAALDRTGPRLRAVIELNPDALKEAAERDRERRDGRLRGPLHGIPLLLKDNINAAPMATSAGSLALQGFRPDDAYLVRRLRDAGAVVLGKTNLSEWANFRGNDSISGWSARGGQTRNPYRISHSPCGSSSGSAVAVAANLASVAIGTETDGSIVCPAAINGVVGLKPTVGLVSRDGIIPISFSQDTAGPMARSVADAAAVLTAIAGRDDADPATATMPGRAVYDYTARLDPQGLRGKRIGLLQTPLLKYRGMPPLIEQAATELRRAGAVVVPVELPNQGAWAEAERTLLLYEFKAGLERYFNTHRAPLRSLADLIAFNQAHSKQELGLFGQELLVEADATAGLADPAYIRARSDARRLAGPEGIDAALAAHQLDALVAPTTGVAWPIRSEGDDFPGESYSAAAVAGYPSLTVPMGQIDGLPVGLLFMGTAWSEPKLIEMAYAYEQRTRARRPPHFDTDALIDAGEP
# assay explanation: Substrate spectrum of peptide amidase, enzymatic determination of the released ammonia
# Assay type: biochemical
# condition description: substrate 10 mM, 18 mU peptide amidase per ml, 50 mM tris/HCl pH 7.5, 30° C., 3 hours
# Description: 18 mU of peptide amidase (purification state after the gel filtration) per ml test batch was used for the substrate spectrum of peptide amidase from Xanthomonas maltophilia. The concentration of the tested substrates was 10 mM in the reaction batch. Unless otherwise indicated, L-amino acid derivatives were used. The incubation took place in 50 mM tris/HCl, pH 7.5 at 30° C. for 3 hours. The reaction was stopped by heating for 5 minutes at 95° C. […]
Peptide text beside a SMILES is read from it.
test readout: Relative conversion (conversion of dipeptide amides, Table 4a) (%)
Write the number in % without appending the unit.

Examples from the recorded data:
* C[C@H](N)C(=O)N[C@@H](Cc1ccccc1)C(N)=O | 218
* C[C@H](N)C(=O)N[C@@H](C)C(N)=O [Ala-Ala-NH2] (H-Ala-Ala-NH2) | 211
* NC(=O)CNC(=O)[C@@H](N)Cc1ccccc1 [Phe-Gly-NH2] (H-Phe-Gly-NH2) | 51
* CC(C)C[C@H](N)C(=O)N[C@@H](Cc1ccccc1)C(N)=O [Leu-Phe-NH2] (H-Leu-Phe-NH2) | 203
* NC(=O)[C@H](Cc1ccccc1)NC(=O)[C@@H](N)CO | 217
* NC(=O)CNC(=O)[C@@H]1CCCN1 [Pro-Gly-NH2] (H-Pro-Gly-NH2) | 66
* NCC(=O)NCC(N)=O | 8
* NC(=O)[C@H](Cc1ccccc1)NC(=O)[C@@H](N)Cc1cnc[nH]1 [His-Phe-NH2] (H-His-Phe-NH2) | 137

API: the following record is the query input.
Lookup: Name the recorded Relative conversion (conversion of dipeptide amides, Table 4a) for C[C@H](N)C(=O)N[C@@H](CC(N)=O)C(=O)O [Ala-Asn-OH] (H-Ala-Asn-OH) .
Found: 0
